Attribute: IC50
- SYSTEM_NAME: Human PDE10A1 (Homo sapiens, UniProt Q9Y233)
- Sequence (Q9Y233 1-779 isoform Q9Y233-1): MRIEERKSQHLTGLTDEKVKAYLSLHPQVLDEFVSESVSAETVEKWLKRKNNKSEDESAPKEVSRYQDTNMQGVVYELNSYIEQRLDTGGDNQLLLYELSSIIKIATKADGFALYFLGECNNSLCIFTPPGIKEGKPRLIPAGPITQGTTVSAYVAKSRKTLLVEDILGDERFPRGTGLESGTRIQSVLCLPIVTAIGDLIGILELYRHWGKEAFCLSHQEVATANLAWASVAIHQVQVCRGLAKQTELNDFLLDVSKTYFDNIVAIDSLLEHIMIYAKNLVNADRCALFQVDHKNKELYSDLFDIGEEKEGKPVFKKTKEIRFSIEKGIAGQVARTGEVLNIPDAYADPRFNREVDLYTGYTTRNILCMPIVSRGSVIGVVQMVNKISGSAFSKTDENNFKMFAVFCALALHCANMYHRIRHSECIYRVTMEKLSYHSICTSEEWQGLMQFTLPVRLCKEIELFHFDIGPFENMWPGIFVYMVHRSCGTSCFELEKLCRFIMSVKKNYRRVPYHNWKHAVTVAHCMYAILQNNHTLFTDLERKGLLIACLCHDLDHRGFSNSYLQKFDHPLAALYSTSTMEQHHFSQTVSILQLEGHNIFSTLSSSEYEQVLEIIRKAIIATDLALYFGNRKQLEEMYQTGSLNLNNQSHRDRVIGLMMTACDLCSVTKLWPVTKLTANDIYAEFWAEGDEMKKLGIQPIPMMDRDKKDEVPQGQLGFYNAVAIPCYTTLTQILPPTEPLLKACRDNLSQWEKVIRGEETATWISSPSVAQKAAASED

Worked examples follow.
Task: Recorded IC50 of `COc1ccc(C2=C(c3ccc(OCc4ccc5ccccc5n4)cc3Cl)COC2=O)cc1` , please.
Output: > 0.05 µM

Task: Recorded IC50 of `Cn1[nH]c(-c2ccncc2)c(-c2ccc(OCc3ccc4ccccc4n3)cc2)c1=O` , please.
Output: > 0.05 µM

Task: Recorded IC50 of `O=C1OCC(c2ccncc2)=C1c1ccc(OCc2ccc3ccccc3n2)c(Cl)c1` , please.
Output: > 0.05 µM

Task: Recorded IC50 of `O=C1OCC(c2cccnc2)=C1c1ccc(OCc2ccc3ccccc3n2)cc1` , please.
Output: > 0.05 µM

Alright, here's another compound for you.
Task: Recorded IC50 of `O=c1o[nH]c(-c2ccncc2)c1-c1ccc(OCc2ccc3ccccc3n2)cc1` , please.
Output: ≤ 0.05 µM
